# target.under.test: HCV NS5B RNA dependent RNA polymerase (Hepatitis C virus genotype 1b)
# Construct: HCV NS5B RNA dependent RNA polymerase activity
# Sequence (P26663 2420-3010): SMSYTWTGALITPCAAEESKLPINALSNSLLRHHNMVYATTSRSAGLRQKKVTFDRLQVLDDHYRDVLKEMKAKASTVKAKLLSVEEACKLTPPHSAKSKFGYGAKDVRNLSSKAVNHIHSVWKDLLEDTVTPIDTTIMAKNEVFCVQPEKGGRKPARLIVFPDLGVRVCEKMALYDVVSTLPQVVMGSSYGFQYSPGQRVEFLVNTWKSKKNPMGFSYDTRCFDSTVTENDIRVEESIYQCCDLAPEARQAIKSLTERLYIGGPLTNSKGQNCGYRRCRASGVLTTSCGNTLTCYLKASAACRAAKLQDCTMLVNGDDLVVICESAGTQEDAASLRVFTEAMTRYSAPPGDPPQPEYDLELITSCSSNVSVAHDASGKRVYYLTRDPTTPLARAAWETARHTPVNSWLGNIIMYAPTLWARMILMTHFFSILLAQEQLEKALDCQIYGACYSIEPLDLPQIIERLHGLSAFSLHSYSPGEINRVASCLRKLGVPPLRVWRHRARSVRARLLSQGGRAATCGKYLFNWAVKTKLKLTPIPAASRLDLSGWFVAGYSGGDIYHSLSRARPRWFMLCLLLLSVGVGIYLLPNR
# test.summary: NS5B inhibition assay (primer dependent elongation, poly rA-U12)
# Format: biochemical
# measurement.parameters: read-out: Anti-NS5B Activity (% Inh., 100 µM)
inhibition at 100 µM values for the compounds below.
result.type: inhibition at 100 µM (%)

Cc1ccc(-c2cc(C(F)(F)F)nn2-c2ccc(S(=O)(=O)NC(=S)NCc3ccccc3)cc2)cc1 82.3
Cc1ccc(-c2cc(C(F)(F)F)nn2-c2ccc(S(=O)(=O)/N=C3\SCC(=O)N3c3ccc([N+](=O)[O-])cc3)cc2)cc1 31.3
Cc1ccc(-c2cc(C(F)(F)F)nn2-c2ccc(S(=O)(=O)NC(=S)Nc3ccccc3)cc2)cc1 53.5
CCNC(=S)NS(=O)(=O)c1ccc(-n2nc(C(F)(F)F)cc2-c2ccc(C)cc2)cc1 49.4
